The reported numbers originate from PubChem BioAssay (NCI).

- System: NCI-H460 lung
- protocol_text: NCI-60 one-dose screen, 48 h
- conditions: 10 µM unless noted
About 83,000 compounds went through this panel and 20% of them were active in at least one assay; those are over-represented in the sample as a whole. Calls of active or inactive are those of the source. The calls were made as follows: active = growth percent below 10; inactive = the rest.
Labels: 1.0 for active, 0.0 for inactive

1. N#Cc1nc(-c2ccccc2)oc1S(=O)(=O)N1CCN(c2ccccc2)CC1 :: 0.0
2. COc1cc(-c2cncn2-c2ccc(-c3nc4ccc(F)cc4s3)cc2)ccc1F :: 0.0
3. COc1ccc(CNc2c3ccccc3nc3ccccc23)cc1 :: 1.0
4. N#CC1=C(N)Oc2c(sc3c(Br)cccc23)C1c1ccc(Cl)cc1 (stereo not given) :: 1.0
5. CC1CCc2c(C(=O)Nc3ncc(Cc4cccc([N+](=O)[O-])c4)s3)csc2C1 (stereo not given) :: 0.0
